tested.target: BACE1 (Homo sapiens (Human), UniProt P56817)
Sequence (P56817 46-501, species assumed): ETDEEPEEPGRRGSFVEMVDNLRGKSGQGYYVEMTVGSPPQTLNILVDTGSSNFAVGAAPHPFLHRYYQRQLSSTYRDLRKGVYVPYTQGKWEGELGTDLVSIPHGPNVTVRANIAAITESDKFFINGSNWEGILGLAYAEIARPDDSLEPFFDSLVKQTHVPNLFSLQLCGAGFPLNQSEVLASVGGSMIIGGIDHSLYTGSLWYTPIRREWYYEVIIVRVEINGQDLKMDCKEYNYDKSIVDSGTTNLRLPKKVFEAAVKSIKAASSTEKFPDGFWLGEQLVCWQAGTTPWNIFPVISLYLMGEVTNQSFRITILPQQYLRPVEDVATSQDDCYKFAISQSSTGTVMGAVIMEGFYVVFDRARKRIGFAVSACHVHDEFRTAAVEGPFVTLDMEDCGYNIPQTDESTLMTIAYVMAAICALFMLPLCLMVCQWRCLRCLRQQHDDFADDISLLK
run.description: BACE1 cell assay
Assay type: cell-based
experimental.parameters: read-out: IC50 IP (μM) BACE1 Cell
Could you mark each record Criterion met if its IC50 falls strictly under 0.002 µM, and Criterion not met if it equals or exceeds it?

1) C[C@]1(c2cc(/C=C(\F)c3ccc(C#N)cn3)ccc2F)N=C(N)S[C@@]2(C(=O)N3CCOC4(COC4)C3)C[C@H]21
Criterion met
2) CN(C)C(=O)[C@]12C[C@H]1[C@@](C)(c1cc(/C=C(\F)c3cn4cc(C#N)ccc4n3)ccc1F)N=C(N)S2
Criterion not met
3) C[C@]1(c2cc(/C=C(\F)c3ccc(C#N)cn3)ccc2F)N=C(N)S[C@@]2(C#N)C[C@H]21
Criterion not met
4) C#CCOc1cnc(/C(F)=C/c2ccc(F)c([C@@]3(C)N=C(N)S[C@@]4(C(=O)N5CC[C@H](F)C5)C[C@H]43)c2)cn1
Criterion met
5) COC[C@]12C[C@H]1[C@@](C)(c1cc(/C=C(\F)c3cnc(OCc4cc(C)on4)cn3)ccc1F)N=C(N)S2
Criterion not met
6) CC[C@H]1COCCN1C(=O)[C@]12C[C@H]1[C@@](C)(c1cc(/C=C(\F)c3ccc(C#N)cn3)ccc1F)N=C(N)S2
Criterion not met
7) C[C@]1(c2cc(/C=C(\F)c3ccc(C#N)cn3)ccc2F)N=C(N)S[C@@]2(C(=O)N3CCC(F)CC3)C[C@H]21
Criterion not met

* * *

tested.target: BACE2 (Homo sapiens (Human), UniProt Q9Y5Z0)
Sequence (Q9Y5Z0 63-518): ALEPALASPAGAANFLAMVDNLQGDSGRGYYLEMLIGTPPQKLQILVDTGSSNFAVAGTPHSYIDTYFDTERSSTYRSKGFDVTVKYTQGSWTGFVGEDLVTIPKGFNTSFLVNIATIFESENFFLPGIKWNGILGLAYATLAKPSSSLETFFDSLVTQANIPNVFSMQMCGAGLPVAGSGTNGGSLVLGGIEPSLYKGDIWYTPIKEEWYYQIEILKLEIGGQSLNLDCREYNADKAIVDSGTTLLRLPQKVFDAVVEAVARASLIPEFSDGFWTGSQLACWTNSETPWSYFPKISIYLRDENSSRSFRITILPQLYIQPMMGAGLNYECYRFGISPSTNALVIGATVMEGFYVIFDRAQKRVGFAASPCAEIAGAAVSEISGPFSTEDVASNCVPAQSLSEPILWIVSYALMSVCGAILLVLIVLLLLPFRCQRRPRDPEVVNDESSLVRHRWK
run.description: In vitro enzymatic BACE2 FRET assay
Type: biochemical
experimental.parameters: read-out: IC50 IP (μM) BACE2 Enzyme
property.label: IC50 (µM)

1. C[C@]1(c2cc(/C=C(\F)c3cnc(N4CCOC4=O)cn3)ccc2F)N=C(N)S[C@@]2(C(=O)N3CCOCC3)C[C@H]21
0.942
2. C#CCOc1cnc(/C(F)=C/c2ccc(F)c([C@@]3(C)N=C(N)S[C@@]4(S(C)(=O)=O)C[C@H]43)c2)cn1
0.058
3. C[C@]1(c2cc(/C=C(\F)c3ccc(C#N)cn3)cnc2F)N=C(N)S[C@@]2(C(=O)N3CCOCC3)C[C@H]21
0.241

* * *

Entries and their IC50 values follow.
tested.target: BACE2 (Homo sapiens (Human))
run.description: In vitro enzymatic BACE2 FRET assay
Assay type: biochemical
experimental.parameters: read-out: IC50 IP (μM) BACE2 Enzyme
property.label: IC50 (µM)

1) C[C@H]1CN(C(=O)[C@]23C[C@H]2[C@@](C)(c2cc(/C=C(\F)c4ccc(C#N)cn4)ccc2F)N=C(N)S3)CCO1
0.111
2) CN(C)C(=O)[C@]12C[C@H]1[C@@](C)(c1cc(/C=C(\F)c3cnc(OCC#N)cn3)ccc1F)N=C(N)S2
0.0927
3) CN(C)[C@@H]1CCN(C(=O)[C@]23C[C@H]2[C@@](C)(c2cc(/C=C(\F)c4ccc(C#N)cn4)ccc2F)N=C(N)S3)C1
0.8
4) COC(=O)[C@]12C[C@H]1[C@@](C)(c1cc(/C=C(\F)c3cnc(Cl)cn3)ccc1F)N=C(N)S2
0.206
5) C[C@]1(c2cc(/C=C(\F)c3ccc(C#N)cn3)ccc2F)N=C(N)S[C@@]2(C#N)C[C@H]21
0.057
6) C#CCOc1cnc(/C(F)=C/c2cnc(F)c([C@@]3(C)N=C(N)S[C@@]4(C(=O)N5CC[C@@H](F)C5)C[C@H]43)c2)cn1
0.078
7) C[C@]1(c2cc(/C=C(\F)c3ccc(C#CC4CC4)cn3)ccc2F)N=C(N)S[C@@]2(C(=O)N3CCOCC3)C[C@H]21
0.43
8) COc1ccc(/C(F)=C/c2ccc(F)c([C@@]3(C)N=C(N)S[C@@]4(C(=O)N5CCCC5)C[C@H]43)c2)nc1
0.144
9) C[C@]1(c2cc(/C=C(\F)c3ccc(C#N)cn3)cnc2F)N=C(N)S[C@@]2(C(=O)N3CCC(F)(F)CC3)C[C@H]21
0.115
10) C[C@]1(c2cc(/C=C(\F)c3cnc(C#N)cn3)ccc2F)N=C(N)S[C@@]2(C(=O)N3CCCCC3)C[C@H]21
0.074
11) C[C@]1(c2cc(/C=C(\F)c3ccc(C#N)cn3)ccc2F)N=C(N)S[C@@]2(C(=O)N3CCCC(c4ccccc4)C3)C[C@H]21 (stereo partly shown)
0.0131
12) C#CCOc1cnc(/C(F)=C/c2cnc(F)c([C@@]3(C)N=C(N)S[C@@]4(C(=O)O)C[C@H]43)c2)cn1
6.35
13) C#Cc1cnc(/C(F)=C/c2ccc(F)c([C@@]3(C)N=C(N)S[C@@]4(C(=O)N5CCOCC5)C[C@H]43)c2)cn1
0.046

* * *

tested.target: BACE2 (Homo sapiens (Human))
run.description: In vitro enzymatic BACE2 FRET assay
Type: biochemical
experimental.parameters: read-out: IC50 IP (μM) BACE2 Enzyme
property.label: log10 of IC50 (log10 of the value in µM)

1) CN(C)C(=O)[C@]12C[C@H]1[C@@](C)(c1cc(/C=C(\F)c3ccc(C#N)cn3)cnc1F)N=C(N)S2
-1.64
2) CN(C)C(=O)[C@]12C[C@H]1[C@@](C)(c1cc(/C=C(\F)c3cnc(OCC(F)F)cn3)ccc1F)N=C(N)S2
-1.19
3) COC[C@]12C[C@H]1[C@@](C)(c1cc(/C=C(\F)c3cnc(OCc4cc(C)no4)cn3)ccc1F)N=C(N)S2
-0.02
4) CC[C@H]1COCCN1C(=O)[C@]12C[C@H]1[C@@](C)(c1cc(/C=C(\F)c3ccc(C#N)cn3)ccc1F)N=C(N)S2
-0.84
5) COC[C@]12C[C@H]1[C@@](C)(c1cc(/C=C(\F)c3cnc(OCC4CC(F)(F)C4)cn3)ccc1F)N=C(N)S2
0.12
6) C[C@]1(c2cc(/C=C(\F)c3cnc(C#N)cn3)ccc2F)N=C(N)S[C@@]2(C(=O)N3CCCC3)C[C@H]21
-1.32
7) COC[C@]12C[C@H]1[C@@](C)(c1cc(/C=C(\F)c3cnc(OCC(F)F)cn3)ccc1F)N=C(N)S2
0.20
8) C[C@]1(c2cc(/C=C(\F)c3ccc(C4COC4)cn3)ccc2F)N=C(N)S[C@@]2(C(=O)N3CCOCC3)C[C@H]21
0.51
9) CNC(=O)[C@]12C[C@H]1[C@@](C)(c1cc(/C=C(\F)c3ccc(C#CC(C)(C)C)cn3)ccc1F)N=C(N)S2
-0.10
10) C[C@]1(c2cc(/C=C(\F)c3cnc(C#C[Si](C)(C)C)cn3)ccc2F)N=C(N)S[C@@]2(C(=O)N3CCOCC3)C[C@H]21
-0.60
11) C[C@]1(c2cc(/C=C(\F)c3ccc(C#N)cn3)ccc2F)N=C(N)S[C@@]2(C(=O)NC3CCOCC3)C[C@H]21
-1.05
12) CC1CC(C)CN(C(=O)[C@]23C[C@H]2[C@@](C)(c2cc(/C=C(\F)c4ccc(C#N)cn4)ccc2F)N=C(N)S3)C1 (stereo partly drawn)
-0.68
13) C[C@]1(c2cc(/C=C(\F)c3ccc(C#N)cn3)ccc2F)N=C(N)S[C@@]2(C(=O)N3CCOC4(CC4)C3)C[C@H]21
-1.29
14) CC#CCOc1cnc(/C(F)=C/c2ccc(F)c([C@@]3(C)N=C(N)S[C@@]4(S(C)(=O)=O)C[C@H]43)c2)cn1
-1.52
15) C[C@]1(c2cc(/C=C(\F)c3ccc(C#N)cn3)ccc2F)N=C(N)S[C@@]2(C(=O)N3CCCC(C#N)C3)C[C@H]21 (stereo partly drawn)
-1.90
16) C[C@]1(c2cc(/C=C(\F)c3cnc(Cl)cn3)ccc2F)N=C(N)S[C@]2(CO)[C@H]1C2(F)F
-0.82
17) CNC(=O)[C@]12C[C@H]1[C@@](C)(c1cc(/C=C(/F)c3ccc(Br)cn3)ccc1F)N=C(N)S2
-0.86
18) C[C@]1(c2cc(/C=C(\F)c3ccccn3)ccc2F)N=C(N)S[C@@]2(C(=O)N3CCOCC3)C[C@H]21
-0.78
19) COC[C@]12C[C@H]1[C@@](C)(c1cc(/C=C(\F)c3cnc(OCCF)cn3)ccc1F)N=C(N)S2
0.06
20) C[C@]1(c2cc(/C=C(\F)c3ccc(Cl)cn3)ccc2F)N=C(N)S[C@@]2(C(N)=O)C[C@H]21
-1.47
21) CN(C)C(=O)[C@]12C[C@H]1[C@@](C)(c1cc(/C=C(\F)C#Cc3ccccc3)ccc1F)N=C(N)S2
-1.74
22) Cc1cc(C#N)cnc1/C(F)=C/c1ccc(F)c([C@@]2(C)N=C(N)S[C@@]3(C(=O)N4CCOCC4)C[C@H]32)c1
-1.05
23) C[C@]1(c2cc(/C=C(\F)c3ccc(C#N)cn3)ccc2F)N=C(N)S[C@@]2(C(=O)N3CCOCC3)C[C@H]21
-0.97
24) CC1CCCN(C(=O)[C@]23C[C@H]2[C@@](C)(c2cc(/C=C(\F)c4ccc(C#N)cn4)ccc2F)N=C(N)S3)C1 (stereo partly drawn)
-1.76
25) C[C@]1(c2cc(/C=C(\F)c3ccc(C#N)cn3)cnc2F)N=C(N)S[C@@]2(C(=O)N3CC[C@H](F)C3)C[C@H]21
-1.35
26) COC[C@]12C[C@H]1[C@@](C)(c1cc(/C=C(\F)c3cnc(OC(C)C(F)(F)F)cn3)ccc1F)N=C(N)S2 (stereo partly drawn)
0.38
27) C[C@]1(c2cc(/C=C(\F)c3ccc(Cl)cn3)ccc2F)N=C(N)S[C@@]2(C(=O)N3CCCC3)C[C@H]21
-2.22
